# Assay protocol: chemical genetic growth profiling, strain panel (AID 1159580);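 note: tested at 20 µM; growth read once vehicle control cultures reached saturation at 30 °C; 1 = growth at the plate median or of vehicle wells; lower values mean less growth of the strain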
# Protocol conditions: S. cerevisiae deletion strains, growth OD, locus YLR403W, strain SFP1, active compounds read low
About 2,000 (36%) of roughly 5,500 compounds were called active. Roughly 18% stayed inconclusive and do not appear here. This is one part of the list.
Endpoint name: normalized growth
// response body must contain only the number

// worked examples, normalized growth included
Compound: Cc1ccccc1C(=O)Oc1ccc(C(F)(F)F)cc1[N+](=O)[O-]
normalized growth: 0.908
--
Compound: Nc1ccccc1SCc1c(Cl)cccc1Cl
normalized growth: 0.795
--
Compound: Cc1ccc(/C=C2\CSc3ccc(F)cc3C2=O)cc1
normalized growth: 0.898

## Task Report normalized growth for COc1cc(NC(=S)N(C)C)c(OC)cc1Cl
## Result 0.986

## Task Specify reported normalized growth for the compound shown: COc1ccc(CN2CSC(=S)N(Cc3ccc(OC)cc3)C2)cc1
## Result 0.927

## Task Write down normalized growth measured for item O=c1c(Sc2ccc(Cl)cc2)c(Sc2ccc(Cl)cc2)c1=O
## Result 0.154

## Task Find the measured normalized growth of O=C(N/C=C/c1ccsc1)Nc1cc(C(F)(F)F)cc(C(F)(F)F)c1 and report it.
## Result 0.444

## Task State its normalized growth: CSC1=NNC(c2nn(C)cc2Cl)S1 (stereo unspecified)
## Result 0.0487

###

In this section, each of the compounds is paired with its reported normalized growth.
# Assay protocol: chemical genetic growth profiling, strain panel (AID 1159580);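 note: tested at 20 µM; growth read once vehicle control cultures reached saturation at 30 °C; 1 = growth at the plate median or of vehicle wells; lower values mean less growth of the strain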
# Protocol conditions: S. cerevisiae deletion strains, growth OD, locus YOL006C, strain TOP1, active compounds read low
Among all 5,500 compounds or so, about 2,000 (36%) were called active. Another 18% or so got no clear call; they are omitted. The list shows a part of the results.
# answer = number (no unit)

## Task For C=C(C)C1CNC(C(=O)O)C1CC(=O)O (centres undefined) , write its normalized growth.
## Result 1.14

## Task Return normalized growth (reported value) for this compound: S=c1nc[nH]c2nc[nH]c12
## Result 1.01

## Task For the compound CCCCCCCCNC(C)C(O)c1ccc(SC(C)C)cc1 (centres undefined) , report normalized growth.
## Result 0.0984

## Task Respond only with normalized growth recorded for CC(=O)C1CCC2C3CC(=O)C4=CC(=O)CCC4(C)C3CCC12C (centres undefined)
## Result 0.846

## Task Consider the compound COc1ccc(C2=C(C(C)=O)C(C)=NC(=S)C2C#N)cc1 (centres undefined) . State its measured normalized growth.
## Result 0.754

## Task Supply reported normalized growth belonging to this compound: COc1ccc2c3c1O[C@H]1C[C@@H](O)C=C[C@@]31CCN(C)C2
## Result 1.03

## Task State its normalized growth for this compound: O=C(O)c1cc2ccccc2[nH]1
## Result 1.04

###

# Assay protocol: chemical genetic growth profiling, strain panel (AID 1159580);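 note: tested at 20 µM; growth read once vehicle control cultures reached saturation at 30 °C; 1 = growth at the plate median or of vehicle wells; lower values mean less growth of the strain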
# Protocol conditions: S. cerevisiae deletion strains, growth OD, locus YHR087W, strain rtc3
Among all 5,500 compounds or so, about 2,000 (36%) were called active. About 18% were inconclusive and are not listed. Cut-off read from the data, not from the text of the source: active = normalized growth mostly below about 0.91 (no sharp cut-off); inconclusive = no clear call, values can overlap the other calls; inactive = mostly above about 0.92. Some of the results follow.
Valid outcomes are listed here; reply with one: active, inactive

Would you please look over these solved cases?
Test smiles: c1ccc(N=Nc2ccc(Nc3ccccc3)cc2)cc1
Qualitative label: active
--
Test smiles: CCC(=O)Nc1cc(F)ccc1C
Qualitative label: inactive
--
Test smiles: COc1cc(/C=C2\NC(=O)NC2=O)ccc1O
Qualitative label: inactive

## Task Outcome logged for CC(C)(C)c1ccc(NC(=O)Cc2cc(F)cc(F)c2)cc1 in this assay:
## Result inactive

## Task Outcome? CCOc1ccc(/C=C(\C#N)c2cccc(Cl)c2)cc1
## Result inactive

## Task Record lookup: outcome of this test for CCCc1cc(=O)c2ccc(O)cc2o1 ?
## Result inactive

## Task # outcome recorded in this test, key = O=C(CSc1nnnn1-c1ccccc1)NC1Cc2ccccc2C1
## Result inactive
